Cited source: patent EP0094833A2

- Tested on: ileum
- Assay Text: Inhibitory effect on contractile response induced by acetylcholine (Anti-ACh), isolated ileum
- Assay type: cell-based, guinea pig
- Condition Notes: Cavia porcellus; guinea pig ileum, acetylcholine 2 X 10^-8 g/ml, test compound applied 2 minutes before; read-out: Anti-ACh (IC50 : g/ml)
Metric: IC50 (µg/mL)

a: CN1CCC(OC(=O)C(c2noc3ccc(Cl)cc23)C2CCCCC2)CC1.O=C(O)C(=O)O (stereo not drawn)
b: CCN(CC)CCOC(=O)C(c1noc2ccc(Cl)cc12)C1CCCCC1 (stereo not drawn)
Which numeric IC50 is bigger, that of a or that of b ? Your choice should be expressed through its label. b
(b: 0.87 µg/mL, a: 0.34 µg/mL)
